Data credit: PubChem BioAssay (NCI)

- Test system: DMS 273 small cell lung
- Test: NCI tumour cell line growth inhibition, 48 h
Readout: TGI

// query Report its TGI with DMS 273 small cell lung as the test system: Cc1nc(-c2ccccc2)cc2c1c(=O)oc1ccccc12
// result > 100 µM

// query Under DMS 273 small cell lung: report TGI of C[C@@H](CN1CC(=O)NC(=O)C1)N1CC(=O)NC(=O)C1 .
// result 626 µM

// query Name the recorded TGI of CN(CCc1ccccn1)c1nc(=[N+](C)C)ss1 , assay system DMS 273 small cell lung.
// result > 100 µM

// query # return TGI of O=S(=O)(N/N=C/c1cccc(Cl)c1Cl)c1ccccc1 (system: DMS 273 small cell lung)
// result > 100 µM

// query Write down the reported TGI (system: DMS 273 small cell lung) of CN(CCO)c1nc(N)cc(=O)[nH]1
// result > 100 µM

----------
For each of the compounds below, state its TGI.
- Test system: SK-MEL-28 melanoma
- Test: NCI tumour cell line growth inhibition, 48 h

// query Provide measured TGI on SK-MEL-28 melanoma for CC(C)(C)c1cc2c(O)c(c1)Cc1cc(C(C#N)(Cc3ccc4ccccc4c3)Cc3ccc4ccccc4c3)cc(c1O)Cc1cc(C(C)(C)C)cc(c1O)Cc1cc(C(C#N)(Cc3ccc4ccccc4c3)Cc3ccc4ccccc4c3)cc(c1O)C2 please.
// result > 100 µM

// query Look up and report measured TGI (SK-MEL-28 melanoma) for the following compound: CN1CCN(c2cc(C(=O)Nc3cc4cc(-c5cnn(C)c5)ccc4cn3)ccn2)CC1
// result 2.89 µM

// query Jot down TGI (SK-MEL-28 melanoma) of Cc1cc(Nc2c3ccccc3nc3ccccc23)ccc1NS(C)(=O)=O .
// result 19.5 µM

// query Fill: TGI (SK-MEL-28 melanoma) for this compound O=C1O[C@H]2[C@H](O)[C@@H](OC(=O)c3cc(O)c(O)c4c3[C@@H]3C1=CC(=O)C(O)(O)C3(O)O4)[C@H](OC(=O)c1cc(O)c(O)c(O)c1)O[C@@H]2CO (some centres undefined)
// result > 100 µM

// query Give TGI; test system SK-MEL-28 melanoma; compound Cc1cc2cn3c4ccc(O)cc4[nH]c(=O)c3c2cc1C
// result 1.74 µM

// query Provide TGI, system SK-MEL-28 melanoma, entry COc1ccc(/C=C2\CCC(C)/C(=C\c3ccc(OC)c(OC)c3)C2=O)cc1OC (centres undefined)
// result 48.1 µM

// query Report the value of TGI obtained on SK-MEL-28 melanoma for COc1ccc2c(c1)/C(=C\c1c(C)nc3sc(C)cn13)C(=O)N2 .
// result > 100 µM

// query State, for SK-MEL-28 melanoma, measured TGI of the compound listed here: C/C=C1/CN2CCC3(O)c4ccccc4N4C=C(C(=O)OC)C1CC2C43O (centres undefined)
// result > 100 µM

// query Check SK-MEL-28 melanoma data and give TGI for Nc1nc2cc3ccc(C4CC(O)C(CO)O4)cc3cc2c(=O)[nH]1 (centres undefined) .
// result > 100 µM

// query Please look at O=S(=O)(N/N=C/c1cccc(Cl)c1Cl)c1ccccc1 and tell me its recorded TGI on SK-MEL-28 melanoma.
// result > 100 µM

// query // output TGI; input CC(C)CC(=O)Nc1n[nH]c2c1CN(C(=O)C1CCN(C)CC1)C2(C)C ; system SK-MEL-28 melanoma
// result > 10 µM

// query Report its TGI with SK-MEL-28 melanoma as the test system: c1ccc(C2=NOC3(c4ccccc4)SC4CCCCC4CN23)cc1 (centres undefined)
// result > 100 µM

// query Recall the reported TGI of COC(=O)Nc1nc2ccc(C(=O)c3ccc(N(C)C4COC4)cc3)cc2[nH]1 on SK-MEL-28 melanoma and write it down.
// result > 100 µM

// query Give TGI only, for Cc1oc(N)c(S(=O)(=O)c2ccc(Cl)cc2)c1C , using SK-MEL-28 melanoma data.
// result > 100 µM

// query Recall the reported TGI of COc1cc(C=C2C(C)=NN(c3cccc(Cl)c3)C23C(Cl)C(=O)N3c2nc3ccccc3s2)ccc1O (centres undefined) on SK-MEL-28 melanoma and write it down.
// result > 100 µM

// query Please tell me the measured TGI for O=S(=O)(SCc1ccccc1)C(c1ccccc1)c1ccccc1 ; system: SK-MEL-28 melanoma.
// result > 100 µM

// query Enter recorded TGI with SK-MEL-28 melanoma for C#CCN(N=O)C(=O)NC(CCCNC(=O)OCc1ccccc1)C(=O)OCc1ccccc1 (centres undefined) here.
// result > 100 µM

// query Enter measured TGI, system SK-MEL-28 melanoma, for the compound shown: C=C1c2[nH]c3ccccc3c2C2C(CC)C1CCN2C (centres undefined)
// result 77.2 µM

// query Supply TGI measured with SK-MEL-28 melanoma for CN(/N=C/c1cccc2cccnc12)c1ccc([N+](=O)[O-])cc1 .
// result > 100 µM

----------
- System: HOP-18 NSCLC
- Test: NCI tumour cell line growth inhibition, 48 h
Readout: TGI

// query Please give measured TGI of the following entry: Cc1ccc(NC(=O)C(=O)CC(=O)C2CCOC2=O)c(C)c1 (stereo not drawn)
// result > 100 µM

// query Determine from records and report TGI for S=P1(N2CCCCC2)Oc2ccc3ccccc3c2-c2c(ccc3ccccc23)O1
// result > 100 µM

// query Give me measured TGI, please, for this compound: CN1C(c2ccccc2)CS(=O)(=O)CS1(=O)=O (stereo not drawn)
// result > 100 µM

// query Could you please provide reported TGI for Clc1ccccc1C1=NN(c2ccccc2)C2c3ccccc3OCC12 (stereo not drawn) ? Thanks!
// result > 100 µM

// query // fetch TGI given entry CC(=O)c1ccc2c(ccc(=O)n2C)c1
// result > 100 µM

// query Read the entry CN(/N=C/c1cccc2cccnc12)c1ccc([N+](=O)[O-])cc1 and write its reported TGI.
// result > 100 µM

// query Give a short answer stating reported TGI for CN(CCc1ccccn1)c1nc(=[N+](C)C)ss1 .
// result > 100 µM

// query Note TGI for the compound shown: O=S(=O)(N/N=C/c1cccc(Cl)c1Cl)c1ccccc1
// result > 100 µM

// query Complete the entry with TGI for CN(CCO)c1nc(N)cc(=O)[nH]1
// result > 100 µM

// query Check the records and state TGI for O=C1C=CC2=[N+]([O-])C(c3ccccc3)(c3ccccc3)C(=Nc3ccccc3)C2=C1
// result 7.52 µM

// query Look up TGI of C=C1C(=O)C[C@@]23CCC[C@@]12CC(OCOC)C3 (stereo partly drawn) and report it.
// result 11.5 µM

// query Please indicate TGI recorded for O=C(Nc1cccc(Cc2cccc(NC(=O)c3ccccc3)c2)c1)c1ccccc1
// result > 100 µM

// query Quote TGI reported for Cc1nc(-c2ccccc2)cc2c1c(=O)oc1ccccc12 please.
// result > 100 µM

----------
- Test system: NCI-H460 lung
- Test: NCI tumour cell line growth inhibition, 48 h
Readout: TGI

// query Given the compound COc1ccc(N/N=C(\CCN(C)C)c2ccccc2)cc1 , write its reported TGI.
// result 10.8 µM

// query Give the measured TGI for O=C(O)Cc1ccc(Oc2nc3ccccc3nc2C(=O)O)cc1
// result > 100 µM

// query Kindly indicate its recorded TGI. Item: COc1ccc(NC(=O)CC/C(CC(=O)C(C)(C)C)=N\NC(=O)C(N)=O)cc1
// result > 100 µM

// query For the compound CC(C)OP(=O)(OC(C)C)/C(C#N)=C/c1ccco1 , report TGI.
// result > 100 µM

// query Supply reported TGI belonging to this compound: O/N=C1/C(=C/c2ccc(Oc3ccccc3)cc2)CCCC1C(NO)c1ccc(Oc2ccccc2)cc1 (stereo not given)
// result > 100 µM

----------
- Test system: UACC-257 melanoma
- Test: NCI tumour cell line growth inhibition, 48 h
Where a SMILES comes first, the peptide text is derived from it. [ ]: non-standard residue; d: D form. The star is where a group is joined. Tyr(3-Br) = N[C@@H](Cc1ccc(O)c(Br)c1)C(=O)O; Boc = CC(C)(C)OC(=O)*
Readout: TGI

// query Fill in: TGI on UACC-257 melanoma, entry CCN(CC)CCCn1c(=O)c2ccccc2n2c3c(=O)n(C)c(=O)n(C)c3nc12
// result 26.2 µM

// query Look up and report measured TGI (UACC-257 melanoma) for the following compound: O=[N+]([O-])c1ccccc1NC1c2ccccc2Oc2ccccc21
// result > 100 µM

// query Look up and report measured TGI (UACC-257 melanoma) for the following compound: C/C=C1/CN2CCC3(O)c4ccccc4N4C=C(C(=O)OC)C1CC2C43O (stereo unspecified)
// result > 100 µM

// query Tell me its TGI on UACC-257 melanoma: Cc1ccc(N=N/C(=N/NC(=O)c2cc(Cl)ccc2C(=O)c2ccccc2)c2ccc(N(CCC#N)CCC#N)cc2C)cc1
// result 39.4 µM

// query Specify TGI for COc1cc(/C=C/c2cc(/C=C/c3ccc(O)c(OC)c3)nc(N)n2)ccc1O , system UACC-257 melanoma.
// result 3.5 µM

// query State measured TGI of the compound Cc1cc(N=Nc2c(O)ccc3ccccc23)ccc1N=Nc1cccc([N+](C)(C)C)c1 with UACC-257 melanoma.
// result > 63.5 µM

// query System UACC-257 melanoma. Read-out TGI. Item CN1CCCCC(C#N)(c2ccccc2)CC1 (stereo unspecified) . Report value.
// result > 100 µM

// query Consider the compound Cc1cc(-c2nc3ccccc3s2)ccc1N tested on UACC-257 melanoma; state its TGI.
// result > 100 µM

// query Output reported TGI of the compound COC(=O)[C@H](Cc1ccc(O)c(Br)c1)NC(=O)[C@H](Cc1ccc(O)cc1)NC(=O)OC(C)(C)C (Boc-Tyr-[Tyr(3-Br)]-OMe) on UACC-257 melanoma.
// result > 100 µM

// query Report TGI under test system UACC-257 melanoma for CCN(CC)c1ccc2c(c1)Oc1nc(N)c(C#N)c(N)c1C2Sc1ccc(OC)cc1 (stereo unspecified) .
// result 3.48 µM

// query Retrieve TGI on UACC-257 melanoma; query COc1ccc(/C=C2\CCC(C)/C(=C\c3ccc(OC)c(OC)c3)C2=O)cc1OC (stereo unspecified)
// result 21.5 µM

// query Identify measured TGI obtained with UACC-257 melanoma for O=Cc1ccc(-c2ccc(-c3nc4ccccc4o3)cc2)s1 .
// result > 100 µM

// query Answer briefly: TGI recorded on UACC-257 melanoma for CC(C)OP(=O)(OC(C)C)/C(C#N)=C/c1ccco1
// result > 100 µM

// query Give TGI for this entry on UACC-257 melanoma: O=C(Cc1nc2ccccc2s1)C(=O)Nc1cccc(Cl)c1
// result > 100 µM

// query Print UACC-257 melanoma TGI for COC(=O)CCC(=O)Nc1cc(Cl)ccc1Cl .
// result > 100 µM

// query Provide TGI, tested on UACC-257 melanoma, for C=C1C(=O)OC2/C=C(/C)C3CC(O)C(C)(CC(OC(=O)/C(C)=C/C)C12)O3 (stereo unspecified) .
// result 17.6 µM

// query Write down the reported TGI (system: UACC-257 melanoma) of COc1ccc(NC(=O)CC/C(CC(=O)C(C)(C)C)=N\NC(=O)C(N)=O)cc1
// result > 100 µM

// query Fill: TGI (UACC-257 melanoma) for this compound CN(/N=C/c1cccc2cccnc12)c1ccc([N+](=O)[O-])cc1
// result > 100 µM

// query Provide the reported TGI (system: UACC-257 melanoma) for O=C1C=CC2=[N+]([O-])C(c3ccccc3)(c3ccccc3)C(=Nc3ccccc3)C2=C1
// result 4.11 µM

// query Report the value of TGI obtained on UACC-257 melanoma for CS(=O)(=O)c1c(N)c2nc(Cl)cn2c2nc3ccccc3nc12 .
// result > 100 µM

// query Provide TGI, system UACC-257 melanoma, entry O=[N+]([O-])/C=C/c1cc2ccccc2[nH]1
// result 29.6 µM
